# Assay summary: Cytotoxicity against human MIAPaCa2 cells after 24 hrs by MTT colorimetric assay
# Type: functional, cell-based
# Cond: MIA PaCa-2, 24 h
Measured metric: IC50

query: Please list IC50 recorded for the compound O=C(CN1CCCCC1)N1CCN(C2(c3ccccc3)C3CC4CC(C3)CC2C4)CC1 (stereo unspecified)
result: 12.2 µM

query: Please list IC50 recorded for the compound Fc1ccc(C2(N3CCNCC3)C3CC4CC(C3)CC2C4)cc1.O=C(O)/C=C\C(=O)O (stereo unspecified)
result: 11.7 µM

query: Please list IC50 recorded for the compound O=C(c1ccc(Cl)s1)N1CCN(C2(c3ccccc3)C3CC4CC(C3)CC2C4)CC1 (stereo unspecified)
result: 12.4 µM

query: Please list IC50 recorded for the compound "Nc1ccn([C@@H]2O[C@H](CO)[C@@H](O)C2(F)F)c(=O)n1"
result: 0.6 µM

query: Please list IC50 recorded for the compound O=C(CN1CCCCC1)N1CCN(C2(c3ccc(F)cc3)C3CC4CC(C3)CC2C4)CC1 (stereo unspecified)
result: 14.6 µM

query: Please list IC50 recorded for the compound O=C(N1CCN(C2(c3ccccc3)C3CC4CC(C3)CC2C4)CC1)n1ccnc1 (stereo unspecified)
result: 13.5 µM

query: Please list IC50 recorded for the compound CCOC(=O)N1CCN(C2(c3ccccc3)C3CC4CC(C3)CC2C4)CC1 (stereo unspecified)
result: 25.4 µM

query: Please list IC50 recorded for the compound CN1CCN(C2(c3ccc(F)cc3)C3CC4CC(C3)CC2C4)CC1 (stereo unspecified)
result: 16.6 µM

query: Please list IC50 recorded for the compound CCOC(=O)N1CCN(C2(c3ccc(F)cc3)C3CC4CC(C3)CC2C4)CC1 (stereo unspecified)
result: 18.5 µM

query: Please list IC50 recorded for the compound CN1CCN(C2(c3ccccc3)C3CC4CC(C3)CC2C4)CC1 (stereo unspecified)
result: 19.5 µM

query: Please list IC50 recorded for the compound O=C(O)/C=C\C(=O)O.c1ccc(C2(N3CCNCC3)C3CC4CC(C3)CC2C4)cc1 (stereo unspecified)
result: 12.3 µM
